The measured values listed here are drawn from patent US20230391775A1.

# target.or.test.system: LRRK2 G2019S (Homo sapiens (Human), UniProt Q5S007, G2019S)
# Sequence (Q5S007 whole entry G2019S): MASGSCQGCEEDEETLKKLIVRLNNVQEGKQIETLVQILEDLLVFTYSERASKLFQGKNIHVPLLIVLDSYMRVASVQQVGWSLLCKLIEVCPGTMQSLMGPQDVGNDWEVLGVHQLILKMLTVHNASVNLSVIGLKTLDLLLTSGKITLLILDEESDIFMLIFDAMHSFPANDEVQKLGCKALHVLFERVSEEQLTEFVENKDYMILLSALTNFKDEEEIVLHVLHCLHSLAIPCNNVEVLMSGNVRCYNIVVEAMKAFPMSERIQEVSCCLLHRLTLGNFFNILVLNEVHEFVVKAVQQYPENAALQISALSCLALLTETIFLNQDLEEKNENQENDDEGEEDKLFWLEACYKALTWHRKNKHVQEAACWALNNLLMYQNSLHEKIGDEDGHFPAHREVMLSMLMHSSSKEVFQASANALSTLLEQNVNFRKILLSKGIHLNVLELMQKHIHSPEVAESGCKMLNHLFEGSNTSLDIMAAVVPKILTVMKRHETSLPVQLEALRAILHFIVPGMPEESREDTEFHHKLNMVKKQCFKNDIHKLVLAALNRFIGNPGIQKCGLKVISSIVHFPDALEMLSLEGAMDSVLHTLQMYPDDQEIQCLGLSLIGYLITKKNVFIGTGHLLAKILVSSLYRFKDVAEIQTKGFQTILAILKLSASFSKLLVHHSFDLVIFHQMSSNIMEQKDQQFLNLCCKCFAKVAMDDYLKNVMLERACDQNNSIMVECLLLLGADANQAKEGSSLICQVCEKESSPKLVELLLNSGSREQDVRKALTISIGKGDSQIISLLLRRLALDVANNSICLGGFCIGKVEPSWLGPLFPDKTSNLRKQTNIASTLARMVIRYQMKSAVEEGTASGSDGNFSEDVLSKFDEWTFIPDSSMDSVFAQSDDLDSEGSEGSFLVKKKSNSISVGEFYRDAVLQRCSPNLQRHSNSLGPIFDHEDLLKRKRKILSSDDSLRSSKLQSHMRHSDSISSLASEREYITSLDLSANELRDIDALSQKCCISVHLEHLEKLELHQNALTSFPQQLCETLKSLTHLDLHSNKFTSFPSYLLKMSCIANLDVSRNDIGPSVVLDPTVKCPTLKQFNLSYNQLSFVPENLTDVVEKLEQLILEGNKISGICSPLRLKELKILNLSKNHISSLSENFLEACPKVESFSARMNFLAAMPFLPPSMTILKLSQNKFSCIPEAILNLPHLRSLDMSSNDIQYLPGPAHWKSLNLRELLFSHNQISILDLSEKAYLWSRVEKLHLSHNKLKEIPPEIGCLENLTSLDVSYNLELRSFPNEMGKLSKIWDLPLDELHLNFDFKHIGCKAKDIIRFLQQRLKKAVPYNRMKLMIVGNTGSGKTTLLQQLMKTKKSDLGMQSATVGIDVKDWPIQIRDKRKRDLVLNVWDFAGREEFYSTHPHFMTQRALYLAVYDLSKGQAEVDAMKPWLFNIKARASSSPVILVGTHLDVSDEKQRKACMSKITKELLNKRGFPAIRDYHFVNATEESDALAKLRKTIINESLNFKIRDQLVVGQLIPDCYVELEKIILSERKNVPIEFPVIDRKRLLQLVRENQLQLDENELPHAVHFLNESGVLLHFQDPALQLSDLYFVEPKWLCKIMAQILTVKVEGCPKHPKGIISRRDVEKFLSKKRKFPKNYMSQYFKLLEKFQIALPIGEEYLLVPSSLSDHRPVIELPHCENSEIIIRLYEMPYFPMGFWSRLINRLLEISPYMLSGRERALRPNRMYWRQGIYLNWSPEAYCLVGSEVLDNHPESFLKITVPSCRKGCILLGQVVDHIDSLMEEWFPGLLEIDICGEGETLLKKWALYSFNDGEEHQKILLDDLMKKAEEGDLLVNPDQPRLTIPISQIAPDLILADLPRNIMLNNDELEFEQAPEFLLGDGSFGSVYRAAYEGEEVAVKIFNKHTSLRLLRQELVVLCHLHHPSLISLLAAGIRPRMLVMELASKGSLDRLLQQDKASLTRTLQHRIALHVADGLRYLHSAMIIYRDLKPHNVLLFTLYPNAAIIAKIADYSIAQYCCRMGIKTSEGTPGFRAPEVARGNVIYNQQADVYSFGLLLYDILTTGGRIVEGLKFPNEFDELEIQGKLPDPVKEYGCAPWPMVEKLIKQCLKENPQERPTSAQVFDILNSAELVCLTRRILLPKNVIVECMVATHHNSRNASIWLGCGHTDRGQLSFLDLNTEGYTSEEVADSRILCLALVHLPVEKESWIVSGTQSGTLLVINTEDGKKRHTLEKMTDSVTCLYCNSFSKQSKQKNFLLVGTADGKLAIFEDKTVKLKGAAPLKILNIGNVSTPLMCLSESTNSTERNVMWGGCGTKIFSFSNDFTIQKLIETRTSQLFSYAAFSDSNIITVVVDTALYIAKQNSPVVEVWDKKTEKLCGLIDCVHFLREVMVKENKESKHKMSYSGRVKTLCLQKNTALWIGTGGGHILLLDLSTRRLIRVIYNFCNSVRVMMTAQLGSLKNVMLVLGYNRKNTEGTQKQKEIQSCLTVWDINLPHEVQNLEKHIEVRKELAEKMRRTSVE
# procedure.details: Adapta kinase assay (LRRK2_IC50 assay)
# measurement.context: Adapta TR-FRET, 1 h, room temperature
pIC50: −log10 of the molar value.
quantity.name: pIC50

Worked examples follow.
compound	pIC50
COc1cc(C(N2C[C@@H]3C[C@H]2CO3)C(F)(F)F)ccc1Nc1nc(OCC(F)(F)F)c2cc[nH]c2n1 (single isomer, unassigned) [Compound 8]	7.28
CCOc1nc(Nc2ccc(C(N3CCN4CCC[C@@H]4C3)C(F)(F)F)cc2OC)nc2[nH]ccc12 (single isomer, unassigned) [Compound 31]	7.19
CCc1nc(Nc2ccc(C(N3CCOCC3)C(F)(F)F)cc2OC)nc2[nH]ccc12 (single isomer, unassigned) [Compound 20]	6.63
COCCOc1nc(Nc2ccc(C(N3CCOCC3)C(F)(F)F)cc2OC)nc2[nH]ccc12 (single isomer, unassigned) [Compound 12]	7.92
COc1cc(C(N2CCOCC2)C(F)(F)F)ccc1Nc1nc(OCCO)c2cc[nH]c2n1 (single isomer, unassigned) [Compound 27]	8.30
COc1cc(C(N2CCOCC2)C(F)(F)F)ccc1Nc1nc(C)c2cc[nH]c2n1 (single isomer, unassigned) [Compound 17]	6.69
COc1cc(C(N2CCOCC2)C(F)(F)F)ccc1Nc1nc(OCC(F)(F)F)c2cc[nH]c2n1 (single isomer, unassigned) [Compound 6]	7.92
COCCOc1nc(Nc2ccc(C(N3CCOCC3)C(F)(F)F)cc2OC)nc2[nH]ccc12 (single isomer, unassigned) [Compound 11]	8.22

(1) COc1cc(C2(N3CCOCC3)CC2)c(F)cc1Nc1nc(OC)c2cc[nH]c2n1
(2) CCOc1nc(Nc2ccc(C(N3CCOCC3)C(F)(F)F)cc2Cl)nc2[nH]ccc12 (single isomer, unassigned) [Compound 21]
(3) COc1cc(C(N2CCOCC2)C(F)(F)F)ccc1Nc1ncc2cc[nH]c2n1 (single isomer, unassigned) [Compound 16]
(4) CCOc1nc(Nc2ccc(C(N3C[C@@H]4C[C@H]3CO4)C(F)(F)F)cc2OC)nc2[nH]ccc12 (single isomer, unassigned) [Compound 9]
(5) CCOc1nc(Nc2ccc(C(N3CCOCC3)C(F)(F)F)cc2CC)nc2[nH]ccc12 (single isomer, unassigned) [Compound 26]
hey, can you rank those compounds up there by pIC50? biggest number first please API: response body holds the labels in the requested order.
4, 1, 5, 2, 3

(P) COc1nc(Nc2ccc(C(N3CCOCC3)C(F)(F)F)cc2Cl)nc2[nH]ccc12 (single isomer, unassigned) [Compound 23]
(Q) CCOc1nc(Nc2ccc(C(C)(N3CCOCC3)C(F)(F)F)cc2OC)nc2[nH]ccc12 (single isomer, unassigned) [Compound 35]
Of P and Q , whose reported pIC50 is the larger number? Let me know the label of the one you choose.
P

(I) CCc1nc(Nc2ccc(C(N3CCOCC3)C(F)(F)F)cc2OC)nc2[nH]ccc12 (single isomer, unassigned) [Compound 19]
(II) CCOc1nc(Nc2ccc(C(N3C[C@H]4C[C@@H]3CO4)C(F)(F)F)cc2OC)nc2[nH]ccc12 (single isomer, unassigned) [Compound 34]
# min-compare on pIC50 between I and II Let me know the label of the one you choose.
I

(1) COc1cc(C(N2CCOCC2)C(F)(F)F)ccc1Nc1nc(OCCO)c2cc[nH]c2n1 (single isomer, unassigned) [Compound 28]
(2) COc1cc(C(N2CCOCC2)C(F)(F)F)ccc1Nc1ncc2cc[nH]c2n1 (single isomer, unassigned) [Compound 15]
(3) COc1cc(C(N2CCOCC2)C(F)(F)F)ccc1Nc1nc(OCC(F)(F)F)c2cc[nH]c2n1 (single isomer, unassigned) [Compound 5]
Provide the items ranked by increasing pIC50. API: response body holds the labels in the requested order.
2, 3, 1

(a) COc1cc(C(N2CCOCC2)C(F)(F)F)ccc1Nc1nc(C)c2cc[nH]c2n1 (single isomer, unassigned) [Compound 18]
(b) CCOc1nc(Nc2ccc(C(N3CCN4CCC[C@@H]4C3)C(F)(F)F)cc2OC)nc2[nH]ccc12 (single isomer, unassigned) [Compound 32]
# min-compare on pIC50 between a and b Let me know the label of the one you choose.
a
(a: 6.60, b: 7.57)
